This listing pairs compounds with measured ED (max).
- Test system: anesthetized guinea-pig
- assay.summary: Inotropic effect and lethal dose, slow intravenous infusion in anesthetized guinea-pig
- Type: in vivo
- condition.summary: Cavia porcellus, iv, 1.5 h; slow i.v. infusion over 90 minutes, anesthetized guinea-pig; read-out: EDmax (dose inducing maximum positive inotropic effect)
Structures can show the parent of a compound that is named as a salt.
Include the unit after the number when you answer.

Below are worked cases with known answers.
compound	ED (max)
C=C1C[C@H]2[C@@H]3CCC(=O)[C@@]3(C)CC[C@@H]2[C@@]2(C)CCC(=NO[C@@H]3CCNC3)C[C@]12O (mixture of isomers) [I-bh, hydrochloride]	3.8 µmol/kg
C[C@]12CC[C@H]3[C@@H](C/C(=N\O)[C@@]4(O)CC(=NO[C@@H]5CCNC5)CC[C@]34C)[C@@H]1CCC2=O (mixture of isomers) [I-bp, hydrochloride]	1.8 µmol/kg

Kindly consider the entry below.
query: Tell me its ED (max) given CC12CCC3C(CC(=NO)C4CC(=NOC5CCNC5)CCC43C)C1CCC2=O (mixture of isomers) [I-av, hydrochloride] as the entry.
result: 4.3 µmol/kg

###

This listing pairs molecules with measured pIC50.
- experimental.system: Dog Kidney Na+, K+-ATPase (Canis lupus familiaris, UniProt P50997)
- assay.summary: Inhibition of the enzymatic activity of purified Na+,K+-ATPase (hydrolysis of 32P-ATP)
- Assay type: biochemical
- condition.summary: read-out: Na+, K+-ATPase Inhibition IC50
Where a name gives a salt, the structure may show the parent alone.
# log scale: pIC50 equals minus log10 of the concentration in mol/L

Below are worked cases with known answers.
molecule	pIC50
C=C1C[C@@H]2[C@H](CC[C@]3(C)C(=O)CC[C@@H]23)[C@@]2(C)CC[C@@H](SC3CCNC3)CC12.O=C(O)/C=C/C(=O)O (mixture of isomers) [I-db, fumarate]	4.70
C[C@]12CCC(=NO[C@H]3CCNC3)C=C1/C(=N/O)C[C@@H]1[C@@H]2CC[C@]2(C)C(=O)CC[C@@H]12 [I-dv]	6.66
COC(=O)[C@@H]1CC2C/C(=N/O[C@@H]3CCNC3)CC[C@]2(C)[C@H]2CC[C@]3(C)C(=O)CC[C@H]3[C@H]12 (stereo partly drawn) [I-cq, hydrochloride]	6.02
C[C@@H]1CC2CC(=NO[C@@H]3CCNC3)CC[C@]2(C)[C@H]2CC[C@]3(C)C(=O)CC[C@H]3[C@H]12 (stereo partly drawn) [I-ck, hydrochloride]	6.68
C=C1C[C@H]2[C@@H]3CCC(=O)[C@@]3(C)CC[C@@H]2[C@@]2(C)CC/C(=N\O[C@@H]3CCN(C)C3)C[C@]12O [I-bm]	5.85

query: Tell me its pIC50 given CN1CC[C@H](O/N=C2\CC[C@@]3(C)C(C2)[C@@H](CO)C(=O)[C@@H]2[C@@H]3CC[C@]3(C)C(=O)CC[C@@H]23)C1 (stereo partly drawn) [I-cu] as the entry.
result: 5.59

###

- System: anesthetized guinea-pig
- assay.summary: Inotropic effect and lethal dose, slow intravenous infusion in anesthetized guinea-pig
- Type: in vivo
- condition.summary: slow i.v. infusion over 90 minutes, anesthetized guinea-pig
Structures can show the parent of a compound that is named as a salt.
This listing pairs compounds with measured Dead/treated.

query: Tell me its Dead/treated given CC12CCC3C(CC(=C(F)F)C4CC(=NOC5CCNC5)CCC43C)C1CCC2=O (mixture of isomers) [I-az, hydrochloride] as the entry.
result: 0/3

query: Tell me its Dead/treated given CC12CCC3C(CC(CCO)C4CC(=NOC5CCNC5)CCC43C)C1CCC2=O (mixture of isomers) [I-bc, hydrochloride] as the entry.
result: 0/3

query: Tell me its Dead/treated given C[C@]12CCC(=NOCCN)CC1C(=O)C[C@@H]1[C@@H]2CC[C@]2(C)C(=O)CC[C@@H]12.Cl (mixture of isomers) [compd 22b, reference compound] as the entry.
result: 7/8

query: Tell me its Dead/treated given C[C@]12CC[C@H]3[C@@H](CC[C@@]4(O)CC(=NO[C@@H]5CCNC5)CC[C@]34C)[C@@H]1CCC2=O (mixture of isomers) as the entry.
result: 0/3

query: Tell me its Dead/treated given `C[C@]12CCC(=NO[C@@H]3CCNC3)C[C@@H]1[C@@H](C(N)=O)C[C@@H]1[C@@H]2CC[C@]2(C)C(=O)CC[C@@H]12.Cl` as the entry.
result: 0/4

query: Tell me its Dead/treated given COC(=O)C1CC2C3CCC(=O)C3(C)CCC2C2(C)CCC(=NOC3CCNC3)CC12 (mixture of isomers) [I-au, hydrochloride] as the entry.
result: 0/4

###

- System: anesthetized guinea-pig
- assay.summary: Inotropic effect and lethal dose, slow intravenous infusion in anesthetized guinea-pig
- Assay type: in vivo
- condition.summary: Cavia porcellus, iv, 1.5 h; slow i.v. infusion over 90 minutes, anesthetized guinea-pig; read-out: EDmax (dose inducing maximum positive inotropic effect)
Structures can show the parent of a compound that is named as a salt.
parameter.measured: ED (max) (µmol/kg)
Express the result in µmol/kg but write the number alone.

Below are worked cases with known answers.
                                   molecule  parameter_measured  recorded_value
0  CC12CCC3C(CC(=O)C4CC(=NOC5CCNC5)CCC43C)C1CCC2=O (mixture of isomers) [I-ae, hydrochloride]            ED (max)            4.26
1  CC1CC2CC(=NOC3CCNC3)CCC2(C)C2CCC3(C)C(=O)CCC3C12 (mixture of isomers) [I-cl, hydrochloride]            ED (max)            6.34
2  CC12CCC3C(CC(O)C4CC(=NOC5CCNC5)CCC43C)C1CCC2=O (single isomer, unassigned) [I-dp, hydrochloride]            ED (max)            43.6
3  C[C@]12CC[C@H]3[C@@H](CC[C@@]4(O)CC(=NO[C@@H]5CCNC5)CC[C@]34C)[C@@H]1CCC2=O (mixture of isomers)            ED (max)            15.3

Kindly consider the entry below.
query: Tell me its ED (max) given CC12CCC3C(CC(CCO)C4CC(=NOC5CCNC5)CCC43C)C1CCC2=O (mixture of isomers) [I-bc, hydrochloride] as the entry.
result: 5.08

###

- experimental.system: Dog Kidney Na+, K+-ATPase (Canis lupus familiaris, UniProt P50997)
- assay.summary: Inhibition of the enzymatic activity of purified Na+,K+-ATPase (hydrolysis of 32P-ATP)
- Format: biochemical
- condition.summary: Na+, K+-ATPase Inhibition IC50
Where a name gives a salt, the structure may show the parent alone.
This listing pairs compounds with measured log10(IC50).
Log scale reminder: IC50 in µM, then log10 taken.

Below are worked cases with known answers.
compound	recorded.value
CC12CCC3C(CC(=O)C4CC(=NOC5CCNC5)CCC43C)C1CCC2=O (mixture of isomers) [I-ae, hydrochloride]	-1.59
C[C@H]1C[C@@H]2[C@H](CC[C@]3(C)C(=O)CC[C@@H]23)[C@@]2(C)CC/C(=N/O[C@@H]3CCNC3)CC12 (some centres unmarked) [I-ax, hydrochloride]	-0.59

query: Check Dog Kidney Na+, K+-ATPase (Canis lupus familiaris, UniProt P50997) data and give log10(IC50) for CC12CCC3C(CC(O)C4CC(=NOC5CCNC5)CCC43C)C1CCC2O (mixture of isomers) [I-do, hydrochloride] .
result: -0.31

query: Check Dog Kidney Na+, K+-ATPase (Canis lupus familiaris, UniProt P50997) data and give log10(IC50) for CC12CCC3C(CC(=O)C4CC(OC(=O)C5CCNC5)CCC43C)C1CCC2=O (mixture of isomers) .
result: 0.62

query: Check Dog Kidney Na+, K+-ATPase (Canis lupus familiaris, UniProt P50997) data and give log10(IC50) for C[C@H]1C[C@@H]2[C@H](CC[C@]3(C)C(=O)CC[C@@H]23)[C@@]2(C)CC/C(=N\O[C@@H]3CCNC3)CC12 (some centres unmarked) [I-aw, fumarate] .
result: -0.47

###

- Tested on: fresh rat hepatocytes
- assay.summary: Metabolism in fresh rat hepatocytes
- condition.summary: test item nominal concentration 45 μM, 2590000-3084000 hepatocytes/ml
Where a name gives a salt, the structure may show the parent alone.
This listing pairs molecules with measured % of compound metabolized after 60 minutes.
Express the result in % but write the number alone.

Below are worked cases with known answers.
molecule	experimental.system	recorded.value
C[C@]12CCC(=NOCCN)CC1C(=O)C[C@@H]1[C@@H]2CC[C@]2(C)C(=O)CC[C@@H]12.Cl (mixture of isomers) [compd 22b, reference compound]	fresh rat hepatocytes	95
CC12CCC3C(C(O)CC4CC(=NOC5CCNC5)CCC43C)C1CCC2=O (mixture of isomers) [I-cj]	fresh rat hepatocytes	20
C[C@]12CC[C@H]3[C@@H](C/C(=N\O)[C@@]4(O)CC(=NO[C@@H]5CCNC5)CC[C@]34C)[C@@H]1CCC2=O (mixture of isomers) [I-bp, hydrochloride]	fresh rat hepatocytes	8
C[C@]12CC[C@H]3[C@@H](CC[C@@]4(O)CC(=NO[C@@H]5CCNC5)CC[C@]34C)[C@@H]1CCC2=O (mixture of isomers) [I-am]	fresh rat hepatocytes	12
C=C1CC2C/C(=N/O[C@@H]3CCNC3)CC[C@]2(C)[C@H]2CC[C@]3(C)C(=O)CC[C@H]3[C@H]12.Cl (stereo partly drawn) [I-cg]	fresh rat hepatocytes	28

query: Tell me its % of compound metabolized after 60 minutes given C=C1C[C@@H]2[C@H](CC[C@]3(C)C(=O)CC[C@@H]23)[C@@]2(C)CC[C@@H](SC3CCNC3)CC12.O=C(O)/C=C/C(=O)O (mixture of isomers) [I-db] as the entry.
result: 25
